Species: Rattus norvegicus
Experiment: Open TG-GATES - Regimen: Single
Type: toxicity, organism-based, Sprague-Dawley
Set-up: regimen Single, gender Male, age 6 weeks
Conditions: in vivo, po, 1000 mg/kg, 9 h, tissue Blood, route gavage, dose level High
Hi! Could you tag entries with WBC below 90 x10_2/uL as condition met, and those at or above as condition not met? Much appreciated.

Example results:
CN/C(=N/CCSCc1nc[nH]c1C)NC#N = condition not met
Cc1nnc2n1-c1ccc(Cl)cc1C(c1ccccc1Cl)=NC2 = condition met

[Q] Find out if reported WBC for "CNC(=C[N+](=O)[O-])NCCSCc1ccc(CN(C)C)o1" is less than 90 x10_2/uL
[A] condition met

[Q] Is WBC of "COC(=O)C1=C(C)NC(C)=C(C(=O)OC)C1c1ccccc1[N+](=O)[O-]" strictly below 90 x10_2/uL?
[A] condition not met

meta.source: ChEMBL document CHEMBL3885861
